// cross-source set; read-out = IC50; system = Tyrosine-protein kinase JAK1 (Homo sapiens)

These recorded examples may help you get a feel for the data.
compound: Cc1cnc2nc1Nc1ccc(F)c(c1)CCNC(=O)c1ccc(cc1S(C)(=O)=O)-c1cnc(F)c(c1)N2
IC50: 11 to 100 nM

compound: Cn1cc(-c2cc3nccn3c(-c3ccn([C@H](CCF)[C@@H]4CC4(F)F)c3)n2)cn1
IC50: 100 to 1000 nM

compound: COc1cc(F)cc(Cl)c1COc1ccc2cc1COCCCCNC(=O)c1ccc(c(N)c1)-c1ccnc(n1)N2
IC50: 1000 to 10000 nM

compound: N#CCC1(n2cc(-c3ncnc4[nH]ccc34)cn2)CN(C2CCN(Cc3ccc(F)c(C#N)c3)CC2)C1
IC50: 5 to 20 nM

compound: Cc1cc2ccc1-c1ccnc(n1)Nc1cccc(c1)COCCCCNC2=O
IC50: 1000 to 10000 nM

For the compound Cn1cc(-c2cc3nccn3c(-c3cnn(CCC#N)c3)n2)cn1 , give its measured IC50 value.
100 to 1000 nM

For the compound Cc1cc(Nc2ncc(C)c(N3CC(C)(NC(=O)c4cccc(F)c4)C3)n2)sn1 , give its measured IC50 value.
< 10 nM

For the compound CCN(c1ccc(O)cc1CNc1nc(-c2cc(F)c(O)cc2CC(F)(F)F)cc2[nH]nc(C(=O)NC)c12)S(C)(=O)=O , give its measured IC50 value.
5.1 nM

For the compound CCCS(=O)(=O)NC12CC(N(C)c3ncnc4[nH]ccc34)(C1)C2 , give its measured IC50 value.
> 5000 nM

For the compound N#CCC(C1CCN(c2nc3cccnc3o2)C1)n1cc(-c2ncnc3[nH]ccc23)cn1 (centres unmarked) , give its measured IC50 value.
< 10 nM

---

// cross-source set; read-out = IC50; system = Tyrosine-protein kinase JAK1 (Homo sapiens, UniProt P23458)

molecule: CNC(=O)c1n[nH]c2cc(-c3cc(F)c(O)cc3CC(F)(F)F)nc(NCc3cnccc3N(C)S(C)(=O)=O)c12
recorded-measurement: 0.0676 µM
--
molecule: Cc1cc(Nc2ncc(C)c(N3CC(CC#N)(N4CCN(C)C5(CC5)C4)C3)n2)sn1
recorded-measurement: < 0.01 µM
--
molecule: N#CCC1(n2cc(-c3ccnc4[nH]ccc34)cn2)CN(C2CCN(C(=O)Nc3ccc(C#N)cc3F)CC2)C1
recorded-measurement: 0.005 to 0.02 µM
--
molecule: Cn1cc(-c2cc3nccn3c(-c3cnn(C(CCF)C4CCCC4)c3)n2)cn1 (stereo not shown)
recorded-measurement: 0.1 to 1 µM
--
molecule: Cn1cc(-c2cc3nccn3c(-c3cnn(C4(CC#N)CN(CC(F)(F)C(F)F)C4)c3)n2)cn1
recorded-measurement: 0.1 to 1 µM

Give IC50 only, for Cc1ccc(NC(=O)c2cc(N3CCOCC3)cc(C(F)(F)F)c2)cc1-c1ccc2c(c1)[nH]c1ncncc12 , using Tyrosine-protein kinase JAK1 (Homo sapiens, UniProt P23458) data.
≤ 0.5 µM

Give IC50 only, for CC1CCOCc2cc(ccc2OCC2CCOC2)Nc2nccc(n2)-c2ccc(cc2N)C(=O)NC1 (stereo not shown) , using Tyrosine-protein kinase JAK1 (Homo sapiens, UniProt P23458) data.
0.101 to 1 µM

---

// cross-source set; read-out = IC50; system = Tyrosine-protein kinase JAK1 (Homo sapiens)

These recorded examples may help you get a feel for the data.
compound: Nc1cc2ccc1-c1ccnc(n1)Nc1ccc(Oc3cccc(F)c3)c(c1)COCCCCNC2=O
IC50: 1000 to 10000 nM

compound: CCS(=O)(=O)N1CC(CC#N)(n2cc(-c3nc(Nc4cnn(CCC(=O)N(C)C)c4)nc4ccsc34)cn2)C1
IC50: 50 to 500 nM

compound: Cc1cc(Nc2ncc(C)c(N3CC(CC#N)(N4CCC5(CC4)CN(C)C5)C3)n2)sn1
IC50: < 50 nM

compound: Cn1nc(C(=O)N[C@H]2C[C@H](CC#N)C2)c2c1CCN(c1ncnc3[nH]ccc13)C2
IC50: 500 to 2000 nM

compound: Cc1cc(Nc2ncc(C)c(N3CC(CC#N)(N4CC5NCCOC5C4)C3)n2)sn1 (centres unmarked)
IC50: < 50 nM

Give IC50 only, for Cn1cnc(Nc2ncc(Cl)c(NC3CC4CN(C(=O)CC#N)CC4C3)n2)c1 (centres unmarked) , using Tyrosine-protein kinase JAK1 (Homo sapiens) data.
20 nM

Give IC50 only, for Cn1cc(-c2cc3nccn3c(-c3cnn(C(CC#N)c4ccccc4)c3)n2)cn1 (centres unmarked) , using Tyrosine-protein kinase JAK1 (Homo sapiens) data.
10 to 100 nM

Give IC50 only, for N#CC1CCOCC1n1cc(C(N)=O)c(Nc2cc(Cl)c3c(c2)C=CB(O)O3)n1 (centres unmarked) , using Tyrosine-protein kinase JAK1 (Homo sapiens) data.
< 10 nM

---

pIC50: −log10 of the molar value.
// cross-source set; read-out = pIC50; system = UniProt P23458

These recorded examples may help you get a feel for the data.
sample-smiles: CS(=O)(=O)c1cnc(-c2cnc3[nH]ccc3c2N[C@@H]2CCCN(C(=O)CC#N)C2)s1
pIC50: ≥ 8.00
--
sample-smiles: C[C@@H](O)c1nc2cnc3ccsc3c2n1[C@H]1CC[C@H](CNS(C)(=O)=O)OC1
pIC50: ≥ 7.00
--
sample-smiles: CN(c1ncnc2[nH]ccc12)N1CCCN(C(=O)CC(F)(F)F)CC1
pIC50: 6.00 to 7.00

Moving on to another molecule below.
For the molecule Cn1cc(-c2cc3nccn3c(-c3cnn(C4(CC#N)CN(S(=O)(=O)c5ccccc5)C4)c3)n2)cn1 , give its measured pIC50 value.
6.00 to 7.00

---

// cross-source set; read-out = IC50; system = Tyrosine-protein kinase JAK1 (Homo sapiens, UniProt P23458)

These recorded examples may help you get a feel for the data.
molecule: CCC(=O)N1CC(CC#N)(n2cc(-c3nc(Nc4cnn(C)c4)nc4ccsc34)cn2)C1
IC50: 50 to 500 nM

molecule: N#CC1CCOCC1n1cc(C(N)=O)c(Nc2cc(Cl)c3c(c2)COB3O)n1 (centres unmarked)
IC50: < 10 nM

molecule: Cc1cc(Nc2ncc(C)c(N3CC(=CC#N)C3)n2)sn1
IC50: < 75 nM

molecule: CCc1cc(O)c(F)cc1-c1cc2[nH]ncc2c(N(CC)Cc2cc(C)ccc2N(C)S(C)(=O)=O)n1
IC50: 40.4 nM

molecule: CNC(=O)c1ccnc(-c2cnc3[nH]ccc3c2N[C@@H]2CCCN(C(=O)CC#N)C2)c1
IC50: 10 to 100 nM

molecule: CCS(=O)(=O)N1CC(CC#N)(n2cc(-c3nc(Nc4ccc(-n5cnnn5)cc4)nc4ccsc34)cn2)C1
IC50: < 50 nM

molecule: Cc1cc(Nc2ncc(C)c(N3CC(CC#N)(N4CCC5(CC4)COC5)C3)n2)sn1
IC50: < 10 nM

Moving on to another molecule below.
Give IC50 only, for CN(c1ncc(Cl)cc1CNc1nc(-c2cc(F)c(O)cc2CC(F)(F)F)cc2[nH]nc(C(N)=O)c12)S(C)(=O)=O , using Tyrosine-protein kinase JAK1 (Homo sapiens, UniProt P23458) data.
44.8 nM

---

// cross-source set; read-out = IC50; system = UniProt:P23458

These recorded examples may help you get a feel for the data.
compound: Cc1cnc2nc1Nc1cccc(c1)COCCCC(=O)N1CCN(CC1)c1cnc(F)c(c1)N2
recorded-measurement: 0.011 to 0.1 µM
--
compound: CCOC(=O)N1CCC[C@H](n2c([C@@H](C)O)nc3cnc4ccsc4c32)C1
recorded-measurement: ≤ 1 µM

Give IC50 only, for CC(C)(C)C1=Cc2cc(Nc3nn([C@@H]4CCCC[C@H]4C#N)cc3C(N)=O)ccc2OB1O (relative stereo) , using UniProt:P23458 data.
< 0.01 µM

Give IC50 only, for Cc1noc(-c2cnc3[nH]ccc3c2N[C@@H]2CCCN(C(=O)CC#N)C2)n1 , using UniProt:P23458 data.
≤ 0.01 µM

---

// cross-source set; read-out = pIC50; system = Tyrosine-protein kinase JAK1 (Homo sapiens)
pIC50: −log10 of the molar value.

These recorded examples may help you get a feel for the data.
molecule: CN1CCC(N2CCN3c4ccc(Nc5ncc(C(N)=O)c(NC6CC6)n5)cc4OC[C@H]3C2)CC1
measurement-target: Tyrosine-protein kinase JAK1 (Homo sapiens)
pIC50: > 6.30
//
molecule: CC1=C(C)c2cc(Nc3nn([C@@H]4CCCC[C@H]4C#N)cc3C(N)=O)cc(C)c2OB1O (relative stereo)
measurement-target: Tyrosine-protein kinase JAK1 (Homo sapiens)
pIC50: 7.30 to 8.00
//
molecule: CC(C)(O)c1nnc2cc(Nc3ncc(Cl)c(NC4CCN(c5ccc(C#N)cn5)CC4)n3)ccn12
measurement-target: Tyrosine-protein kinase JAK1 (Homo sapiens)
pIC50: > 9.52

Give pIC50 only, for Cc1cc(Nc2ncc(C)c(N3CC(CC#N)(NC(=O)C4CCCC(F)(F)C4)C3)n2)sn1 (stereo not shown) , using Tyrosine-protein kinase JAK1 (Homo sapiens) data.
> 8.00
